assay: Pharmacokinetic study in normal and arthritic model rats after oral administration of APR extract (UPLC-MS/MS of plasma); conditions: Sprague-Dawley, rat, in vivo, po, 4.1 mL/kg, t max, arthritic model rats (complete Freund's adjuvant), oral APR extract 4.1 mL/kg, plasma, mean ± SD, n = 6
metric: Tmax (h)
Give the quantity in h, number only.

Need Tmax of COc1c2occc2cc2ccc(=O)oc12 , thanks.
3.33

###

assay: Pharmacokinetic study in normal and arthritic model rats after oral administration of APR extract (UPLC-MS/MS of plasma); details: Sprague-Dawley, rat, plasma, po, 4.1 mL/kg, t max, arthritic model rats (complete Freund's adjuvant), oral APR extract 4.1 mL/kg, mean ± SD, n = 6
Overview of reported Tmax across a group of molecules:
Give the quantity in min, number only.

For orientation, consider the following solved cases.
O=C(/C=C/c1ccc(O)c(O)c1)O[C@H]1[C@H](O)C[C@](O)(C(=O)O)C[C@H]1O: 27
CC(C)(O)[C@@H]1Cc2c(ccc3ccc(=O)oc23)O1: 540

Then this molecule:
Need Tmax of O=C(/C=C/c1ccc(O)c(O)c1)O[C@@H]1[C@H](O)C[C@@](O)(C(=O)O)C[C@H]1OC(=O)/C=C/c1ccc(O)c(O)c1 , thanks.
17.4

Every entry's value here was drawn from paper PMC9398717.
